- Tested on: L1210 leukemia ip in BDF1 mice, survival T/C
- protocol-description: NCI In Vivo Anticancer Drug Screen. Data for tumor model L1210 Leukemia (intraperitoneal) in B6D2F1 (BDF1) mice
- study-conditions: endpoint: mean survival time; dose: 10.0 mg/kg/injection; schedule: Q01DX001 (ip); vehicle: carboxymethylcellulose (CMC); higher = longer survival
- Method: The antitumor activity of compounds was measured in mice bearing transplantable tumors. Survival or tumor size were measured and the results are expressed as the measurement made in the treated group (T) divided by the measurement made in the vehicle treated control group (C). The tumor model used in this assay is L1210 Leukemia (intraperitoneal) in B6D2F1 (BDF1) mice
Toxic doses and inconclusive results are not listed.
parameter-measured: T/C

Reference set, count: 3
- molecule: "NC(=S)N/N=C\\c1c[nH]c2cc(C(F)(F)F)ccc12"
  parameter-measured: "T/C"
  recorded-value: "95 % of control"
- molecule: "OC1CSC1.[Cl][Hg][Cl]"
  parameter-measured: "T/C"
  recorded-value: "100 % of control"
- molecule: "CC1=CCC2C(=O)C=CC(=O)C2C1 (centres undefined)"
  parameter-measured: "T/C"
  recorded-value: "107 % of control"

Query :: Form field - read-out: T/C; system: L1210 leukemia ip in BDF1 mice, survival T/C; submitted item: CC(CC(c1ccccc1)c1ccccc1)[N+](C)(C)C (centres undefined)
Result :: 101 % of control

---

Consider the following compounds; for each one, report its T/C.
- Test system: L1210 leukemia ip in BDF1 mice, survival T/C
- protocol-description: NCI In Vivo Anticancer Drug Screen. Data for tumor model L1210 Leukemia (intraperitoneal) in B6D2F1 (BDF1) mice
- study-conditions: endpoint: mean survival time; dose: 400.0 mg/kg/injection; schedule: Q01DX001 (ip); vehicle: saline; higher = longer survival
Toxic doses and inconclusive results are not listed.

- compound: "CCCCCC/C(C)=N/Nc1ccc([N+](=O)[O-])cc1[N+](=O)[O-]"
  T/C: "100 % of control"
- compound: "CCC1CN1P1(=O)OCC(C)(C(=O)OC)CO1 (configuration not stated)"
  T/C: "101 % of control"
- compound: "CC(C)C1(C(C)C)S(=O)(=O)CCS1(=O)=O"
  T/C: "102 % of control"
- compound: "Nc1ccc(/C=C\\C2(CCl)OCCO2)cc1"
  T/C: "94 % of control"
- compound: "CC(=O)OC1COC(n2cnc3c(=O)[nH]c(N)nc32)C(OC(C)=O)C1OC(C)=O (configuration not stated)"
  T/C: "93 % of control"
- compound: "O=Cc1ccc2c3c(cccc13)CC2"
  T/C: "100 % of control"
- compound: "FC(F)OC(F)(F)C(F)Cl (configuration not stated)"
  T/C: "97 % of control"
- compound: "COc1ccc(C(=O)N/N=C/c2ccccc2)cc1"
  T/C: "98 % of control"

Please give T/C, item by item, for the list that follows.
1. Cc1ccccc1NP1(=O)OCCCN1Cc1ccc(Cl)cc1 (configuration not stated)
2. CC(=O)OCC1OC(n2cnc([N+](=O)[O-])c2C#N)C(OC(C)=O)C1OC(C)=O (configuration not stated)

Result ::
1. 100 % of control
2. 92 % of control

Please give T/C, item by item, for the list that follows.
1. COc1ccc2c(=O)c(O)c(-c3ccc(OC)c(OC)c3)oc2c1
2. O=[N+]([O-])c1ccc(S(=O)(=O)Cl)c(Cl)c1

Result ::
94 % of control
92 % of control

---

- Test system: L1210 leukemia ip in BDF1 mice, survival T/C
- protocol-description: NCI In Vivo Anticancer Drug Screen. Data for tumor model L1210 Leukemia (intraperitoneal) in B6D2F1 (BDF1) mice
- study-conditions: endpoint: mean survival time; dose: 400.0 mg/kg/injection; schedule: Q01DX009 (ip); vehicle: Klucel (hydroxypropylcellulose) (HPC); higher = longer survival
Toxic doses and inconclusive results are not listed.
Consider the following compounds; for each one, report its T/C.

- structure-smiles-string: "NC(=O)c1ccccc1NC(=O)c1ccccc1Cl"
  parameter-measured: "T/C"
  recorded-value: "93 % of control"
- structure-smiles-string: "COc1ccc(C(=O)N/N=C/c2ccccc2OC)cc1"
  parameter-measured: "T/C"
  recorded-value: "96 % of control"
- structure-smiles-string: "Cc1cc(N(c2c(Cl)c(Cl)c(NS(=O)(=O)c3ccccc3)c(Cl)c2Cl)S(=O)(=O)c2ccccc2)cc(C)c1N"
  parameter-measured: "T/C"
  recorded-value: "94 % of control"

Proceed to the following item.
Query :: # input compound: CCOC(=O)c1ccc(NC(=O)Oc2ccccc2F)cc1 ; wanted: its T/C
Result :: 96 % of control

---

Consider the following compounds; for each one, report its T/C.
- Tested on: L1210 leukemia ip in BDF1 mice, survival T/C
- protocol-description: NCI In Vivo Anticancer Drug Screen. Data for tumor model L1210 Leukemia (intraperitoneal) in B6D2F1 (BDF1) mice
- study-conditions: endpoint: mean survival time; dose: 25.0 mg/kg/injection; schedule: Q04DX002 (ip); vehicle: Klucel (hydroxypropylcellulose) (HPC); higher = longer survival
Toxic doses and inconclusive results are not listed.

Reference set, count: 5
- compound: "O=C1c2ccccc2-c2ccccc2C12N=Nc1ccccc12 (stereo unspecified)"
  T/C: "101 % of control"
- compound: "CC(=O)[C@H]1CC[C@H]2[C@@H]3C[C@H](C)C4=CC(=O)CC[C@]4(C)[C@@]3(F)[C@@H](O)C[C@]12C"
  T/C: "105 % of control"
- compound: "O=C(c1ccccc1)c1ccc(O)c([N+](=O)[O-])c1"
  T/C: "113 % of control"
- compound: "O=C(CCc1ccc(Cl)cc1)Nc1ccccc1"
  T/C: "97 % of control"
- compound: "CCCCCCCCCCCCCCCCCC(=O)[O][Pb]([CH3])([CH3])[CH3]"
  T/C: "97 % of control"

Proceed to the following item.
Query :: # input compound: CNC(=O)CCCOC(=O)c1ccc([N+](=O)[O-])cc1 ; wanted: its T/C
Result :: 108 % of control

---

- System: L1210 leukemia ip in BDF1 mice, survival T/C
- protocol-description: NCI In Vivo Anticancer Drug Screen. Data for tumor model L1210 Leukemia (intraperitoneal) in B6D2F1 (BDF1) mice
- study-conditions: endpoint: mean survival time; dose: 200.0 mg/kg/injection; schedule: Q01DX001 (ip); vehicle: saline; higher = longer survival
Inconclusive results and toxic doses are left out.
Consider the following compounds; for each one, report its T/C.

- compound: "c1cc(C2OCCO2)ccn1"
  study-system: "L1210 leukemia ip in BDF1 mice, survival T/C"
  T/C: "100 % of control"
- compound: "NOCc1cscn1"
  study-system: "L1210 leukemia ip in BDF1 mice, survival T/C"
  T/C: "101 % of control"
- compound: "CC(Cc1ccccc1)N(C)C(=O)CN1C(=O)c2ccccc2C1=O (stereo not given)"
  study-system: "L1210 leukemia ip in BDF1 mice, survival T/C"
  T/C: "109 % of control"

Please give T/C, item by item, for the list that follows.
1. CC(=O)N(CCCc1ccccc1)C(C)(C)C
2. NCCNCCN
3. CC(=O)OCC1OC(N2CCc3ccccc32)C(OC(C)=O)C(OC(C)=O)C1OC(C)=O (stereo not given)
4. O=[N+]([O-])c1ccc(Sc2ccsc2)c([N+](=O)[O-])c1
5. O=S(=O)(/C(=C\c1ccccc1)c1ccccc1)C(Cl)c1ccccc1 (stereo not given)
6. C=CCNC(=O)c1ccc(C(=O)NCC=C)cc1
7. NCc1nc2ccccc2[nH]1

Result ::
1: 114 % of control; 2: 104 % of control; 3: 102 % of control; 4: 98 % of control; 5: 110 % of control; 6: 102 % of control; 7: 95 % of control

---

- System: L1210 leukemia ip in BDF1 mice, survival T/C
- protocol-description: NCI In Vivo Anticancer Drug Screen. Data for tumor model L1210 Leukemia (intraperitoneal) in B6D2F1 (BDF1) mice
- study-conditions: endpoint: mean survival time; dose: 10.0 mg/kg/injection; schedule: Q01DX001 (ip); vehicle: saline; higher = longer survival
Inconclusive results and toxic doses are left out.
Consider the following molecules; for each one, report its T/C.

- molecule: "CCOC(=O)c1[nH]c(=S)[nH]c1C(=O)OCC"
  study-system: "L1210 leukemia ip in BDF1 mice, survival T/C"
  T/C: "102 % of control"
- molecule: "CC1([CH2][Hg][I])CS(=O)(=O)CC(C)([CH2][Hg][I])O1 (stereo not drawn)"
  study-system: "L1210 leukemia ip in BDF1 mice, survival T/C"
  T/C: "104 % of control"
- molecule: "CC(C)(O)C#N"
  study-system: "L1210 leukemia ip in BDF1 mice, survival T/C"
  T/C: "102 % of control"
- molecule: "CS(=O)(=O)Oc1nn2c(OS(C)(=O)=O)nnc2s1"
  study-system: "L1210 leukemia ip in BDF1 mice, survival T/C"
  T/C: "109 % of control"
- molecule: "CC1(C)N=C(N)N=C(N)N1c1cccc(CCCCc2ccc(Cl)cc2Cl)c1"
  study-system: "L1210 leukemia ip in BDF1 mice, survival T/C"
  T/C: "100 % of control"

Please give T/C, item by item, for the list that follows.
1. Nc1nc2c(=O)[nH]cnc2n1C1OC(CO)C(O)C1O (stereo not drawn)
2. COc1ccc2nc3ccccc3c(NCCCN(C)C)c2c1
3. CCCCCN(CCCCC)CC(O)C1c2ccccc2Cc2ccccc21 (stereo not drawn)

Result ::
["104 % of control", "115 % of control", "98 % of control"]
